Ref: patent US11840686B2

- Tested on: human PKK mRNA
- ASSAY NOTES: Dose-dependent antisense inhibition of human PKK in HepaRG cells, 0.19-5.00 uM (Example 5)
- Type: cell-based
- CONDITION NOTES: HepaRG cells, 1.67 μM antisense oligonucleotide
Strand notation (5' to 3'): a small letter for the sugar, then the base; units joined by * are phosphorothioate-linked, units joined directly phosphodiester-linked; [ ] holds rarer units or linkages, { } end groups; capitals alone tell only the bases. e = 2'-O-(2-methoxyethyl) (MOE); [5mC] = 5-methylcytosine; d = 2'-deoxy (DNA)
READOUT LABEL: percent inhibition of PKK mRNA, 1.67 μM (%)
Your answer is read as %, so omit the unit and give the number.

A selection of reference data follows.
SUBSTANCE	percent inhibition of PKK mRNA, 1.67 μM, %
547617 (antisense e[5mC]*eT*eG*eT*e[5mC]*d[5mC]*dT*dA*dT*dA*dT*d[5mC]*dA*d[5mC]*dT*eG*eT*eA*e[5mC]*e[5mC]) [compound 547617]	79
547293 (antisense e[5mC]*eA*eT*e[5mC]*eT*dG*dG*d[5mC]*dA*dG*dT*dA*dT*dT*dG*eG*eG*e[5mC]*eA*eT) [compound 547293]	65
546870 (e[5mC]*eT*eG*eT*eA*d[5mC]*d[5mC]*dT*dA*dT*dA*dA*d[5mC]*dT*d[5mC]*eT*eA*eA*e[5mC]*eA; antisense) [compound 546870]	61
546897 (eA*eG*eT*eA*eT*d[5mC]*dA*d[5mC]*dT*dG*dT*d[5mC]*d[5mC]*dT*dA*eT*eG*eT*e[5mC]*eA; antisense) [compound 546897]	69
548770 (antisense eT*eA*eA*e[5mC]*dA*dG*dT*dA*dT*d[5mC]*dA*d[5mC]*dT*eG*eT*e[5mC]*e[5mC]) [compound 548770]	61

Please report the recorded percent inhibition of PKK mRNA, 1.67 μM for 547294 (antisense e[5mC]*eT*e[5mC]*eA*eT*d[5mC]*dT*dG*dG*d[5mC]*dA*dG*dT*dA*dT*eT*eG*eG*eG*e[5mC]) [compound 547294] .
84

Now the same for 546753 (e[5mC]*eT*eG*eG*e[5mC]*dT*d[5mC]*dA*d[5mC]*dT*dA*dT*dA*dG*dG*e[5mC]*e[5mC]*e[5mC]*e[5mC]*eA; antisense) [compound 546753]
70
